Listing of recorded log10 EC50 by entry.
# assayDetails: in vitro
# Type: cell-based
Each number you see is log10 of EC50, and the unit inside the log is µg/mL.

Answered cases to consult:
molecule	observedProperty	valueReported
Fc1cc(NC2CCNCC2)cc(Oc2ccc(Oc3cc(F)cc(NC4CCNCC4)c3)cc2)c1 [Compound 164]	log10 EC50	1.18
O=C(Nc1ccc(O[C@@H]2CCNC2)cc1)c1cc(C(=O)Nc2ccc(O[C@@H]3CCNC3)cc2)ncn1 [Compound 197]	log10 EC50	2.27
COc1cc(SCCN)c(C(F)(F)F)cc1NC(=O)Nc1ccc(SCCNC(=N)N)c(C(F)(F)F)c1 [Compound 276]	log10 EC50	1.81
N=C(N)NCCc1cc(Br)cc(C#Cc2cc(C#Cc3cc(Br)cc(CCNC(=N)N)c3)cc(C(F)(F)F)c2)c1 [Compound 179]	log10 EC50	1.34

log10 EC50 reported for this molecule COc1cc(SCCNC(=N)N)c(C(F)(F)F)cc1NC(=O)c1cc(C(=O)Nc2cc(C(F)(F)F)c(SCCNC(=N)N)cc2OC)nc(SCCNC(=N)N)n1 [Compound 184] : 0.60

Lab note: measured log10 EC50 of NCc1ccc(C(F)(F)F)c(Oc2ccc(S(=O)(=O)c3ccc(Oc4cc(CN)ccc4C(F)(F)F)cc3)cc2)c1 [Compound 156] was 0.95

Record N#Cc1cccc(C(=O)Nc2cc(C(F)(F)F)cc(NC(=O)c3cc(C(=O)Nc4cc(C(F)(F)F)cc(NC(=O)c5cccc(C#N)c5)c4SCCN)ncn3)c2SCCN)c1 [Compound 101] . Reported log10 EC50: 2.77

Notebook: N=C(N)NCCCCC(=O)Nc1cc(C(F)(F)F)cc(NC(=O)c2cc(C(=O)Nc3cc(C(F)(F)F)cc(NC(=O)CCCCNC(=N)N)c3SCCNC(=O)CN)ncn2)c1SCCNC(=O)CN [Compound 160] , log10 EC50 read as 2.40

Entry N=C(N)NCCCOc1cc(OCCCNC(=N)N)c(-c2ccc(C(F)(F)F)cc2)cc1-c1ccc(C(F)(F)F)cc1 [Compound 144] — recorded log10 EC50 = 0.48

The molecule listed as COc1cc(SCCNC(=N)N)c(C(F)(F)F)cc1NC(=O)c1cc(C(=O)Nc2cc(C(F)(F)F)c(SCCNC(=N)N)cc2OC)ncn1 [Compound 302] has a reported log10 EC50 of 0.60

----------
# assayDetails: Cytotoxicity against HepG2 cells
# Type: cell-based
# statedConditions: human, HepG2 cells; read-out: Cytotoxicity HepG2 EC50
observedProperty: pEC50
Formally, pEC50 is defined as -log10 of the concentration c, with c in mol/L.

cpdSmiles	valueReported
N=C(N)NCCCCCC(=O)Nc1cccc(-c2cc(-c3ccc(NC(=O)CCCCNC(=N)N)cc3)nc(-c3ccccc3)n2)c1	4.64

Memo: `NCCSc1c(NC(=O)c2ccccc2)cc(C(F)(F)F)cc1NC(=O)c1cc(C(=O)Nc2cc(C(F)(F)F)cc(NC(=O)c3ccccc3)c2SCCN)ncn1` , reported pEC50: 3.03

compound `COc1cc(SCCN)c(C(F)(F)F)cc1NC(=O)c1cc(C(=O)Nc2cc(C(F)(F)F)c(SCCN)cc2OC)nc(SCCN)n1` , pEC50 observed: 3.13

Form: compound = `NCCSc1c(N)cc(C(F)(F)F)cc1NC(=O)c1cc(C(=O)Nc2cc(C(F)(F)F)cc(NC(=O)c3cccnc3)c2SCCN)ncn1` ; pEC50 = 4.39

Data credit: patent US20150094294A1
